Data provenance is paper PMC6407917.

assaySystem: STK17A (Homo sapiens)
Sequence (Q9UEE5 whole entry): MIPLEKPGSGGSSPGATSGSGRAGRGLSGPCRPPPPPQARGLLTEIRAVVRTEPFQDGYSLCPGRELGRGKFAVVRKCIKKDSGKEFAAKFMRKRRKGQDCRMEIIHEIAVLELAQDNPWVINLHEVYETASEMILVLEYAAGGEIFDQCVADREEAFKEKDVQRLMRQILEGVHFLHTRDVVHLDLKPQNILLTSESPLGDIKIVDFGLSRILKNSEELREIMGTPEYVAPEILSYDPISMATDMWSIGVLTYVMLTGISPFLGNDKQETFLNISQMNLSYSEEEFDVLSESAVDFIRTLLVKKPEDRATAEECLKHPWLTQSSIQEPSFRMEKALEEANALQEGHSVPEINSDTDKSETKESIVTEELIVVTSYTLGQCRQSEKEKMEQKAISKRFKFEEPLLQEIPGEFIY
protocolDescription: biochemical
Set-up: species or system HEK293/K-562/placenta mixed human extract; Kinobeads chemoproteomic competition binding, quantified by TMT LC-MS/MS, dose response up to 20 uM

[
  {
    "structureSmiles": "COc1nc(N[C@H]2CC[C@H](NS(=O)(=O)CC(C)C)CC2)nc2[nH]nc(N3CCOC[C@H]3C)c12",
    "IC50": "≥ 20 µM"
  }
]

###

assaySystem: SERPINB2 (Homo sapiens)
Sequence (P05120 whole entry): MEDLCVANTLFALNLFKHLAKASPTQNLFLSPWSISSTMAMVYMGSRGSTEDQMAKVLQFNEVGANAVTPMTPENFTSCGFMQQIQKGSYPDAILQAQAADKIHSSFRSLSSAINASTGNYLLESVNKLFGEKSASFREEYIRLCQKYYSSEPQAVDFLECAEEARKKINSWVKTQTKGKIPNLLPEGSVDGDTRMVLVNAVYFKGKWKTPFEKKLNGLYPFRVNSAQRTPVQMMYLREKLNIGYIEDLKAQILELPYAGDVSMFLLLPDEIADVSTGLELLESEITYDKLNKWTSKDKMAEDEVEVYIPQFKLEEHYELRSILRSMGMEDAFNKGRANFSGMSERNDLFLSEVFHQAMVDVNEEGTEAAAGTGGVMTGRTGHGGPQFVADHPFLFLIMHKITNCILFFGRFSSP
protocolDescription: biochemical
Parameters: species or system HEK293/K-562/placenta mixed human extract; Kinobeads chemoproteomic competition binding, quantified by TMT LC-MS/MS, dose response up to 20 uM

[
  {
    "structureSmiles": "COc1nc(N[C@H]2CC[C@H](NS(=O)(=O)CC(C)C)CC2)nc2[nH]nc(N3CCOC[C@H]3C)c12",
    "IC50": "≥ 20 µM"
  }
]

###

assaySystem: EPHB2 (Homo sapiens, UniProt P29323)
Sequence (P29323 1-1055): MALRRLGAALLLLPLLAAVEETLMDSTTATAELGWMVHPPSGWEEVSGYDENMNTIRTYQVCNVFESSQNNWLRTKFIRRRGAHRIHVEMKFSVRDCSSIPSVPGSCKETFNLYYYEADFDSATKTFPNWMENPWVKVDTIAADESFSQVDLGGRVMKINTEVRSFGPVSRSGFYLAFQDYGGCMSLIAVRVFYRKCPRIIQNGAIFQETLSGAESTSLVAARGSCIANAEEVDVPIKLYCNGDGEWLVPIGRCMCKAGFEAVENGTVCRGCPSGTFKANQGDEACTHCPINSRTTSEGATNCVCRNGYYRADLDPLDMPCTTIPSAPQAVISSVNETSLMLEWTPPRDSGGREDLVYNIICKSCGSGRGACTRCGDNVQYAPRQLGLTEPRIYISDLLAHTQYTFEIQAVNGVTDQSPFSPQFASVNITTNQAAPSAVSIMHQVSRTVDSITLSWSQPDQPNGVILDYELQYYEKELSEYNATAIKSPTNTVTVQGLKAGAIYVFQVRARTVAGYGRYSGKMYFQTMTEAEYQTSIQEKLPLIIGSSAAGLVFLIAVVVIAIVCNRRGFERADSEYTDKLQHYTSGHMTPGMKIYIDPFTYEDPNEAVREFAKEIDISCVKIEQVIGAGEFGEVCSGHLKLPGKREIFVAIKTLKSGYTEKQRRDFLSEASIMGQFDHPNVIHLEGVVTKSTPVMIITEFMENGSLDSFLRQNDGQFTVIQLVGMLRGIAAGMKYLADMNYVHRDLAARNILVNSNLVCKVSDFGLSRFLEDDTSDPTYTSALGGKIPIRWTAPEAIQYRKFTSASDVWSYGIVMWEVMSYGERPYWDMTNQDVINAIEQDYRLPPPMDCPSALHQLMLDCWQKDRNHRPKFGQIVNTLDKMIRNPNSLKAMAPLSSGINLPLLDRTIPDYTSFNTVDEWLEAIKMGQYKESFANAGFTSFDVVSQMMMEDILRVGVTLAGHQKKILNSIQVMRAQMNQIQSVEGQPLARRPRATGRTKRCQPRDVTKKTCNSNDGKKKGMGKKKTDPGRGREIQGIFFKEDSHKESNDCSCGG
protocolDescription: biochemical
Parameters: species or system HEK293/K-562/placenta mixed human extract; Kinobeads chemoproteomic competition binding, quantified by TMT LC-MS/MS, dose response up to 20 uM
pIC50: −log10 of the molar value.

[
  {
    "structureSmiles": "COc1nc(N[C@H]2CC[C@H](NS(=O)(=O)CC(C)C)CC2)nc2[nH]nc(N3CCOC[C@H]3C)c12",
    "pIC50": "≤ 4.70"
  }
]

###

assaySystem: PDXK (Homo sapiens, UniProt O00764)
Sequence (O00764 whole entry): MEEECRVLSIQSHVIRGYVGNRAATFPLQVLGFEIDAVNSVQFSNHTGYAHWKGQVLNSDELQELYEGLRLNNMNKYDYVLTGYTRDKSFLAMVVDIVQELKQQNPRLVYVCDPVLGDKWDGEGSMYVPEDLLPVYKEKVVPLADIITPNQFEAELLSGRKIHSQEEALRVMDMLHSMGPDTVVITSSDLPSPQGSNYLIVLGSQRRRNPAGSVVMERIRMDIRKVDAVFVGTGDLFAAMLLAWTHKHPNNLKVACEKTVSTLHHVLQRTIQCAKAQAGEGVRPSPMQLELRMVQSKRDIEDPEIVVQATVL
protocolDescription: biochemical
Design: species or system HEK293/K-562/placenta mixed human extract; Kinobeads chemoproteomic competition binding, quantified by TMT LC-MS/MS, dose response up to 20 uM

[
  {
    "structureSmiles": "COc1ccccc1-c1n[nH]c2nc(N[C@H]3CC[C@H](NS(=O)(=O)CCC(F)(F)F)CC3)nc(OC)c12",
    "IC50": "≥ 20 µM"
  }
]

###

assaySystem: GAK (Homo sapiens)
protocolDescription: biochemical
Set-up: species or system HEK293/K-562/placenta mixed human extract; Kinobeads chemoproteomic competition binding, quantified by TMT LC-MS/MS, dose response up to 20 uM
attributeMeasured: IC50 (µM)

[
  {
    "structureSmiles": "COc1ccccc1-c1n[nH]c2nc(N[C@H]3CC[C@H](NS(=O)(=O)CCC(F)(F)F)CC3)nc(OC)c12",
    "assaySystem": "GAK (Homo sapiens)",
    "u": "µM",
    "valueObserved": 9.9
  }
]

###

assaySystem: UniProt P30291
Sequence (P30291 whole entry): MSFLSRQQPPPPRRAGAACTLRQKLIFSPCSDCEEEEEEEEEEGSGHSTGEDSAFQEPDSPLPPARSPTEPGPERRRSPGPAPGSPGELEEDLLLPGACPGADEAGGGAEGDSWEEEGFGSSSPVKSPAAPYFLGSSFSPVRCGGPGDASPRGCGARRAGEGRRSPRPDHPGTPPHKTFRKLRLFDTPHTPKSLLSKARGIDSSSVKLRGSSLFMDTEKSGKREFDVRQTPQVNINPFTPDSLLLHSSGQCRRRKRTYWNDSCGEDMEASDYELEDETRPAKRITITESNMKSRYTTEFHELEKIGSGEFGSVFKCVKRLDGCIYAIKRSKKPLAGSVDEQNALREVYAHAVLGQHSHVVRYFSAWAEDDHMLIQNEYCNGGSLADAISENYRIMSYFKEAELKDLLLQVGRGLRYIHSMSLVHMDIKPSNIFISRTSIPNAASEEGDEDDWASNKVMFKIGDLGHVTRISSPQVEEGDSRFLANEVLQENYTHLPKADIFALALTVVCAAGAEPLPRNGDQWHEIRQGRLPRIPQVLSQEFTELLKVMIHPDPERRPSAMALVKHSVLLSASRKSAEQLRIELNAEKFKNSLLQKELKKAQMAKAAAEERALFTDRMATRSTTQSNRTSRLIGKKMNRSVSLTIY
protocolDescription: biochemical
Set-up: species or system HEK293/K-562/placenta mixed human extract; Kinobeads chemoproteomic competition binding, quantified by TMT LC-MS/MS, dose response up to 20 uM
pIC50: −log10 of the molar value.

[
  {
    "structureSmiles": "COc1ccccc1-c1n[nH]c2nc(N[C@H]3CC[C@H](NS(=O)(=O)CCC(F)(F)F)CC3)nc(OC)c12",
    "assaySystem": "UniProt P30291",
    "pIC50": "≤ 4.70"
  }
]

###

assaySystem: PRKAG1 (Homo sapiens, UniProt P54619)
Sequence (P54619 whole entry): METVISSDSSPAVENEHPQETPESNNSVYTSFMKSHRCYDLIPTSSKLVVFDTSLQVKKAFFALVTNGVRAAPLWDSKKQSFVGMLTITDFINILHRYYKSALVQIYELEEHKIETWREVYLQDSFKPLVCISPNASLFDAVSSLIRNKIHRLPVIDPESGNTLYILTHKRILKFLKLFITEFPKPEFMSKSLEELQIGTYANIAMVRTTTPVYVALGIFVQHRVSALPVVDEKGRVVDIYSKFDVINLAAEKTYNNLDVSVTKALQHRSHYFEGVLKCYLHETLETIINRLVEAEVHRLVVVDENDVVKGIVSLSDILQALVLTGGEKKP
protocolDescription: biochemical
Set-up: species or system HEK293/K-562/placenta mixed human extract; Kinobeads chemoproteomic competition binding, quantified by TMT LC-MS/MS, dose response up to 20 uM

[
  {
    "compound": "COc1ccccc1-c1n[nH]c2nc(N[C@H]3CC[C@H](NS(=O)(=O)CCC(F)(F)F)CC3)nc(OC)c12 [compound 31]",
    "IC50": "≥ 20 µM"
  }
]

###

assaySystem: FER (Homo sapiens)
protocolDescription: biochemical
Parameters: species or system HEK293/K-562/placenta mixed human extract; Kinobeads chemoproteomic competition binding, quantified by TMT LC-MS/MS, dose response up to 20 uM

[
  {
    "molecule": "COc1nc(N[C@H]2CC[C@H](NS(=O)(=O)CC(C)C)CC2)nc2[nH]nc(N3CCOC[C@H]3C)c12 [compound 39]",
    "IC50": "≥ 20 µM"
  }
]

###

assaySystem: MAP2K4 (Homo sapiens)
Sequence (P45985 whole entry): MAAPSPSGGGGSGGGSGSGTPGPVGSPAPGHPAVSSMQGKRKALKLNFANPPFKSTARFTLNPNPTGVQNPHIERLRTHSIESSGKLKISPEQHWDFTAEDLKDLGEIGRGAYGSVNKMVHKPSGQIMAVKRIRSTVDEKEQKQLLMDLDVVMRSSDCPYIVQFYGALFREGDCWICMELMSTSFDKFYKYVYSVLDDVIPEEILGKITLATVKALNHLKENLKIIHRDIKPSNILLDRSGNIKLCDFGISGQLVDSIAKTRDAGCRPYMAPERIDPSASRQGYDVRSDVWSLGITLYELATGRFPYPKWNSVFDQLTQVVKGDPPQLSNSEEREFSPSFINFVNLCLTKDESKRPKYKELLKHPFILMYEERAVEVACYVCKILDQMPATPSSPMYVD
protocolDescription: biochemical
Parameters: species or system HEK293/K-562/placenta mixed human extract; Kinobeads chemoproteomic competition binding, quantified by TMT LC-MS/MS, dose response up to 20 uM
pIC50: −log10 of the molar value.

[
  {
    "structureSmiles": "COc1ccccc1-c1n[nH]c2nc(N[C@H]3CC[C@H](NS(=O)(=O)CCC(F)(F)F)CC3)nc(OC)c12",
    "assaySystem": "MAP2K4 (Homo sapiens)",
    "pIC50": "≤ 4.70"
  }
]

###

assaySystem: EGFR (Homo sapiens, UniProt P00533)
Sequence (P00533 whole entry): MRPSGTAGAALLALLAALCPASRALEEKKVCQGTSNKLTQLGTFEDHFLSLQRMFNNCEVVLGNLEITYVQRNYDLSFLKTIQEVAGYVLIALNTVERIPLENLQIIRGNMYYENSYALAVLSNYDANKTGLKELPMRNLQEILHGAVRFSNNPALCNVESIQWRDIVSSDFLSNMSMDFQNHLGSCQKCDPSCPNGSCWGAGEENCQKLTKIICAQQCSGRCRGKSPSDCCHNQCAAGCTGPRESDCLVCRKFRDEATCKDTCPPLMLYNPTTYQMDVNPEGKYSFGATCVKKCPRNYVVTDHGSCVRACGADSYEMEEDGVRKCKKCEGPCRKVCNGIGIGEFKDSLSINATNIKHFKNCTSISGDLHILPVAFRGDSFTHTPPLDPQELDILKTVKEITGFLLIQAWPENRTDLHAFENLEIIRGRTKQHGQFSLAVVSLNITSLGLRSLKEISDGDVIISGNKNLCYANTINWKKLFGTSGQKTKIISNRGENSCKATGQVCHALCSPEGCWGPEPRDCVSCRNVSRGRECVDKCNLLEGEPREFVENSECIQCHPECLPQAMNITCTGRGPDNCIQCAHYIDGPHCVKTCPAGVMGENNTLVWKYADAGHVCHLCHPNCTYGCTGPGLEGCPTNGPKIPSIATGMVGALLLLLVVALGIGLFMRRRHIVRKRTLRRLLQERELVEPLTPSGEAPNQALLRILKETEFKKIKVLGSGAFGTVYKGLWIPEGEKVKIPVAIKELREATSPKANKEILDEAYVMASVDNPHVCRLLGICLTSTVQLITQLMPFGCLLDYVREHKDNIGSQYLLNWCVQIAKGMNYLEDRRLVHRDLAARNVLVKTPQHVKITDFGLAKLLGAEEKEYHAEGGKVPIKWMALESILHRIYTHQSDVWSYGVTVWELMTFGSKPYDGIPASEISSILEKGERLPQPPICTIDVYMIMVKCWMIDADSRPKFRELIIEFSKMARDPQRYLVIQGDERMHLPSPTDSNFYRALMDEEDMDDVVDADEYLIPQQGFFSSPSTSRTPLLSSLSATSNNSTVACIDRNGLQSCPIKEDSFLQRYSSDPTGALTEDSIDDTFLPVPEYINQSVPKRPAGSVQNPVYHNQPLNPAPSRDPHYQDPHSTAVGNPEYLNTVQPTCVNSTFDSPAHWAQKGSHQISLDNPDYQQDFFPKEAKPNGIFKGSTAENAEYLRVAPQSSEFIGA
protocolDescription: biochemical
Set-up: species or system HEK293/K-562/placenta mixed human extract; Kinobeads chemoproteomic competition binding, quantified by TMT LC-MS/MS, dose response up to 20 uM

[
  {
    "structureSmiles": "COc1nc(N[C@H]2CC[C@H](NS(=O)(=O)CC(C)C)CC2)nc2[nH]nc(N3CCOC[C@H]3C)c12",
    "IC50": "≥ 20 µM"
  }
]

###

assaySystem: FRK (Homo sapiens, UniProt P42685)
Sequence (P42685 whole entry): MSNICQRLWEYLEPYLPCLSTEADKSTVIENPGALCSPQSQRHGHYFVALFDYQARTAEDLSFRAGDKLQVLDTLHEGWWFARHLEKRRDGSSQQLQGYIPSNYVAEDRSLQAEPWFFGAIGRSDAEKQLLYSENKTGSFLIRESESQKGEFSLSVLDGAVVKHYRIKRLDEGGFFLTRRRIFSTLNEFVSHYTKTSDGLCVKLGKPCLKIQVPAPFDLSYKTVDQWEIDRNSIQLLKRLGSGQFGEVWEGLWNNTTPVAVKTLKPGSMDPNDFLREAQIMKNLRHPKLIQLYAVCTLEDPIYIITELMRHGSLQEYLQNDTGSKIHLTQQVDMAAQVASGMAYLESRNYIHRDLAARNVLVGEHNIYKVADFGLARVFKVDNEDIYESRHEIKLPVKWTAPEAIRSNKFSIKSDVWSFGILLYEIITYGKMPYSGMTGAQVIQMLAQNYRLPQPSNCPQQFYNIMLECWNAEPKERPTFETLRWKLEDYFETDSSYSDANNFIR
protocolDescription: biochemical
Parameters: species or system HEK293/K-562/placenta mixed human extract; Kinobeads chemoproteomic competition binding, quantified by TMT LC-MS/MS, dose response up to 20 uM

[
  {
    "molecule": "COc1ccccc1-c1n[nH]c2nc(N[C@H]3CC[C@H](NS(=O)(=O)CCC(F)(F)F)CC3)nc(OC)c12 [compound 31]",
    "IC50": "≥ 20 µM"
  }
]

###

assaySystem: EIF2AK4 (Homo sapiens, UniProt Q9P2K8)
protocolDescription: biochemical
Set-up: species or system HEK293/K-562/placenta mixed human extract; Kinobeads chemoproteomic competition binding, quantified by TMT LC-MS/MS, dose response up to 20 uM

[
  {
    "compound": "COc1nc(N[C@H]2CC[C@H](NS(=O)(=O)CC(C)C)CC2)nc2[nH]nc(N3CCOC[C@H]3C)c12 [compound 39]",
    "IC50": "≥ 20 µM"
  }
]

###

assaySystem: FYN (Homo sapiens, UniProt P06241)
Sequence (P06241 whole entry): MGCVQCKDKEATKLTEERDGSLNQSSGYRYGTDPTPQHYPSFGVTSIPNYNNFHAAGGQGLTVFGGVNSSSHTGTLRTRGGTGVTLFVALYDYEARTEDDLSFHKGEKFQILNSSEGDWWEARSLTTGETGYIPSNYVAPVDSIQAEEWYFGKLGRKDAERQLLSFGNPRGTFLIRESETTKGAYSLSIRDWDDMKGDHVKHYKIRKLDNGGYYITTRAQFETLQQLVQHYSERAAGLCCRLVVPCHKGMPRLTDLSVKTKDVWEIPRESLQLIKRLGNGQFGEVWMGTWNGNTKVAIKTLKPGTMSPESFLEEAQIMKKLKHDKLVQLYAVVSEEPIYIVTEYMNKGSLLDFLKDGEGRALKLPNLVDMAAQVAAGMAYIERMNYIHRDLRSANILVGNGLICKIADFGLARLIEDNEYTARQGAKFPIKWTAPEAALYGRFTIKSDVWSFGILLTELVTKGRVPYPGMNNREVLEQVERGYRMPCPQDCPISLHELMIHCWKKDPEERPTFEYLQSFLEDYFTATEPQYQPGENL
protocolDescription: biochemical
Design: species or system HEK293/K-562/placenta mixed human extract; Kinobeads chemoproteomic competition binding, quantified by TMT LC-MS/MS, dose response up to 20 uM
attributeMeasured: IC50

[
  {
    "structureSmiles": "COc1ccccc1-c1n[nH]c2nc(N[C@H]3CC[C@H](NS(=O)(=O)CCC(F)(F)F)CC3)nc(OC)c12",
    "valueObserved": "≥ 20 µM"
  }
]
